Some variants, each annotated with its measured self-cleavage.
B1: CPEB3 Ribozyme (parent)
chain: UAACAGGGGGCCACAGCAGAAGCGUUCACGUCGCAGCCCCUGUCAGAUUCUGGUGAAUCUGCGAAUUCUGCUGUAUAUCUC

- Variants of: B1
- test-details: self-cleavage, relative activity (ratio to wild type); higher = more cleavage; in vitro, sequencing
Kindly provide the number alone.

{"sequence-change": "C50G G61A", "endpoint-result": 0.27}
{"sequence-change": "C62G A77U", "endpoint-result": 0.19}

Incoming: Please give the documented self-cleavage of A13U A21G
Outgoing: 0.48

Incoming: Give the reported value of self-cleavage for this record: A5G A28C
Outgoing: 0.61

Incoming: Could you please provide reported self-cleavage for A45U U49A ? Thanks!
Outgoing: 0.17

Incoming: Specify self-cleavage for A5U C12U and stop.
Outgoing: 1.14

Incoming: Indicate its recorded self-cleavage; the variant in question is G10A A18C
Outgoing: 0.35

Incoming: Please report self-cleavage for the following variant: A15U U78A
Outgoing: 0.48

Incoming: Give me measured self-cleavage, please, for this variant: U60A U72C
Outgoing: 0.64

Incoming: Could you please provide reported self-cleavage for A13G C37A ? Thanks!
Outgoing: 0.18

Incoming: Identify the reported self-cleavage for the following entry. U31A G61A
Outgoing: 0.37

Incoming: Supply reported self-cleavage belonging to this variant: G9U U69A
Outgoing: 0.11

Incoming: Output self-cleavage of C37A U51C
Outgoing: 0.17

Incoming: Supply measured self-cleavage of G24A C37A in your reply.
Outgoing: 0.17

Incoming: Indicate its recorded self-cleavage; the variant in question is A18G A45C
Outgoing: 0.3

Incoming: Quick one: give measured self-cleavage for G19U A47G
Outgoing: 0.22
